test system: MALME-3M melanoma; experiment: NCI tumour cell line growth inhibition, 48 h

[
  {
    "SUBSTANCE_SMILES": "CC(=O)Nc1ccc(C2C(C(=O)Nc3ccccc3)=C(C)NC(C)=C2C(=O)Nc2ccccc2)cc1",
    "ASSAY_SYSTEM": "MALME-3M melanoma",
    "TGI": "> 100 µM"
  },
  {
    "SUBSTANCE_SMILES": "COc1cc2nn(-c3ccccc3)nc2c2nonc12",
    "ASSAY_SYSTEM": "MALME-3M melanoma",
    "TGI": "> 100 µM"
  },
  {
    "SUBSTANCE_SMILES": "Nc1ccccc1Nc1ccccc1C(=O)[O-].Nc1ccccc1Nc1ccccc1C(=O)[O-].[Ni+2]",
    "ASSAY_SYSTEM": "MALME-3M melanoma",
    "TGI": "> 100 µM"
  }
]

---

system: MDA-MB-435; assay: NCI tumour cell line growth inhibition, 48 h
Collected TGI values appear next to each entry.

[
  {
    "SUBSTANCE_SMILES": "COc1ccc(C(=S)N(C)NC(=O)CC(=O)NN(C)C(=S)c2ccc(OC)cc2)cc1",
    "TGI": "> 100 µM"
  },
  {
    "SUBSTANCE_SMILES": "N#CC(C#N)=Cc1c[nH]c(=O)[nH]c1=O",
    "TGI": "> 100 µM"
  },
  {
    "SUBSTANCE_SMILES": "CCCN1C/C(=C\\c2ccc(O)c(OC)c2)C(=O)/C(=C/c2ccc(O)c(OC)c2)C1",
    "TGI": "> 100 µM"
  },
  {
    "SUBSTANCE_SMILES": "C/C(=C\\COP(=O)(O)OP(=O)(O)O)CCCOCc1ccccc1",
    "TGI": "> 100 µM"
  },
  {
    "SUBSTANCE_SMILES": "OCCN(CCO)c1ccc2c(-c3ccccc3)cc(N(CCO)CCO)nc2n1",
    "TGI": "> 100 µM"
  },
  {
    "SUBSTANCE_SMILES": "CC(=O)N1CCC(Nc2ncc3cc(Oc4ccc(F)cc4F)c(=O)n(C)c3n2)CC1",
    "TGI": "> 25 µM"
  },
  {
    "SUBSTANCE_SMILES": "OC(CC(CC(O)(C(F)(F)F)C(F)(F)F)=NN=C(CC(O)(C(F)(F)F)C(F)(F)F)CC(O)(C(F)(F)F)C(F)(F)F)(C(F)(F)F)C(F)(F)F",
    "TGI": "> 10 µM"
  }
]

---

This section presents molecules with their documented TGI values.
test system: OVCAR-8 ovarian; test: NCI tumour cell line growth inhibition, 48 h
MEASURED_ATTRIBUTE: TGI

[
  {
    "MOLECULE": "Cc1ccc(NC(=O)CC(=O)N2N=C(N(C)c3ccccc3)CC2c2ccccc2)cc1 (stereo not drawn)",
    "ASSAY_SYSTEM": "OVCAR-8 ovarian",
    "REPORTED_VALUE": "> 100 µM"
  },
  {
    "MOLECULE": "c1ccc(-c2nnc(CCCCCCCCc3nnc(-c4ccccc4)o3)o2)cc1",
    "ASSAY_SYSTEM": "OVCAR-8 ovarian",
    "REPORTED_VALUE": "> 100 µM"
  },
  {
    "MOLECULE": "CN(CCCNC(=O)c1nn(-c2ccccc2)c2c1ccc1ccccc12)CCCNC(=O)c1nn(-c2ccccc2)c2c1ccc1ccccc12",
    "ASSAY_SYSTEM": "OVCAR-8 ovarian",
    "REPORTED_VALUE": "3.38 µM"
  }
]

---

Collected TGI values appear next to each entry.
test system: HOP-92 NSCLC; test: NCI tumour cell line growth inhibition, 48 h

[
  {
    "MOLECULE": "COc1ccc(/C=N/N/C(O)=c2/sc(=C(C#N)C#N)n(-c3ccccc3)c2=N)cc1",
    "ASSAY_SYSTEM": "HOP-92 NSCLC",
    "TGI": "> 70.8 µM"
  },
  {
    "MOLECULE": "CCC(N)(C(=O)O)C(C)C (stereo not drawn)",
    "ASSAY_SYSTEM": "HOP-92 NSCLC",
    "TGI": "> 100 µM"
  },
  {
    "MOLECULE": "O=C(O)c1ccc(NCc2nc3cc(Cl)c(Cl)cc3[nH]2)cc1",
    "ASSAY_SYSTEM": "HOP-92 NSCLC",
    "TGI": "> 100 µM"
  },
  {
    "MOLECULE": "COc1cc([C@@H]2c3cc4c(cc3[C@@H](OC3OC5CO[C@@H](c6cccs6)OC5C(O)C3O)[C@H]3COC(=O)[C@H]23)OCO4)cc(OC)c1O (stereo partly drawn)",
    "ASSAY_SYSTEM": "HOP-92 NSCLC",
    "TGI": "1.76 µM"
  },
  {
    "MOLECULE": "O=[N+]([O-])c1ccc(C2CC(c3ccc(NCc4nc5ccccc5[nH]4)cc3)=NO2)cc1 (stereo not drawn)",
    "ASSAY_SYSTEM": "HOP-92 NSCLC",
    "TGI": "> 100 µM"
  },
  {
    "MOLECULE": "CC(=O)OC1C[C@@H](C)C2(CC(c3ccoc3)OC2=O)C2CCC(O)C3(CO3)C12CO (stereo partly drawn)",
    "ASSAY_SYSTEM": "HOP-92 NSCLC",
    "TGI": "> 100 µM"
  },
  {
    "MOLECULE": "COc1cc2c(cc1OCCCN1CCN(C)CC1)N=C[C@@H]1CCCN1C2=O",
    "ASSAY_SYSTEM": "HOP-92 NSCLC",
    "TGI": "4.65 µM"
  },
  {
    "MOLECULE": "CCNc1cnc2c(n1)c(=O)n(C)c(=O)n2C",
    "ASSAY_SYSTEM": "HOP-92 NSCLC",
    "TGI": "> 100 µM"
  }
]

---

tested on: MDA-MB-231 breast; experiment: NCI tumour cell line growth inhibition, 48 h

[
  {
    "COMPOUND": "COc1ccc(-c2ccc(-c3ccc(C(=N)N)c(F)c3)s2)cc1",
    "DISPLAY_UNIT": "µM",
    "QUALIFIER_OPERATOR": "=",
    "TGI": 0.515
  },
  {
    "COMPOUND": "O=C1OC2C=CCC1C2 (stereo not drawn)",
    "DISPLAY_UNIT": "µM",
    "QUALIFIER_OPERATOR": ">",
    "TGI": 100
  },
  {
    "COMPOUND": "O=c1c(=O)c2cscc2c1=O",
    "DISPLAY_UNIT": "µM",
    "QUALIFIER_OPERATOR": "=",
    "TGI": 10
  }
]

---

Listing of recorded TGI by entry.
tested on: OVCAR-5 ovarian; experiment: NCI tumour cell line growth inhibition, 48 h
Where a SMILES comes first, the peptide text is derived from it.

[
  {
    "COMPOUND": "Cc1cc(Cl)ccc1OCc1nn2c(CCCCc3nnc4sc(COc5ccc(Cl)cc5C)nn34)nnc2s1",
    "TGI": "> 100 µM"
  },
  {
    "COMPOUND": "CC(=O)N1CCC(Nc2ncc3cc(Oc4ccc(F)cc4F)c(=O)n(C)c3n2)CC1",
    "TGI": "> 25 µM"
  },
  {
    "COMPOUND": "Cc1cc(N(CCC#N)CCC#N)ccc1/C=N/NC(=O)c1ccccc1",
    "TGI": "> 100 µM"
  },
  {
    "COMPOUND": "CC(C)(C)OC(=O)NC(CSCc1ccc(C(=O)c2ccccc2)cc1)C(=O)O (stereo unspecified)",
    "TGI": "> 100 µM"
  },
  {
    "COMPOUND": "CC1CC2(OC2C)C(=O)OC2CCN(C)C/C=C(/COC(=O)C1(C)O)C2=O (stereo unspecified)",
    "TGI": "> 100 µM"
  },
  {
    "COMPOUND": "COc1ccc(-c2nc(Sc3c([N+](=O)[O-])ncn3C)n[nH]2)cc1",
    "TGI": "> 100 µM"
  },
  {
    "COMPOUND": "O=S(O)CCCCCSSSCCCCCS(=O)O",
    "TGI": "> 100 µM"
  },
  {
    "COMPOUND": "Cc1ccc(C2=NN(c3ccc(S(C)(=O)=O)cc3)C(=O)CC2)cc1",
    "TGI": "> 100 µM"
  },
  {
    "COMPOUND": "CCC(C)C(NC(=O)C(NC(=O)C(CC(N)=O)NC(=O)CN)C(C)O)C(=O)NC(C(=O)NC(C)C(=O)NC(C(=O)NC(CCC(=O)O)C(=O)NC(CC(C)C)C(=O)NC(CC(=O)O)C(=O)NC(C(=O)NC(Cc1ccc(O)cc1)C(=O)N1CCCC1C(=O)O)C(C)O)C(C)C)C(C)C (stereo unspecified) (H-GNTIVAVELDTYP-OH; configuration not given here)",
    "TGI": "> 50 µM"
  },
  {
    "COMPOUND": "O=c1ccccc(-c2ccc(Br)cc2)c1O",
    "TGI": "> 100 µM"
  },
  {
    "COMPOUND": "CN(C)CCONC(=O)C12CC3CC(CC(C3)C1)C2",
    "TGI": "> 100 µM"
  }
]
